- Test system: Plasmodium berghei
- assayRemarks: Screen against P. berghei liver stage (PbLuc), transformed with Luciferase, at 2uM
- Type: functional, HepG2
- conditions: tested at 2 uM
About 2,700 (4%) of roughly 68,000 compounds showed an effect of 50% or more. Many of the other results were omitted from the sample, so strong results are more common in it than they were.
parameter: INHIBITION

In the examples that follow, each entry is paired with its recorded INHIBITION.
{"compound": "CSc1ncccc1C(=O)NCCC(O)c1ccco1 (centres undefined)", "parameter": "INHIBITION", "measured": "14.45%"}
{"compound": "COC(=O)c1cccn1C1CCN(C(=O)c2cn[nH]c2C)CC1", "parameter": "INHIBITION", "measured": "0.26%"}
{"compound": "COc1ccccc1CC(=O)N1CCN(Cc2ccco2)C[C@@H]1C", "parameter": "INHIBITION", "measured": "4.19%"}

Measured INHIBITION, CCN(C(=O)CSc1ccc(C(F)(F)F)cn1)C1CC1 : -69.56%

###

- Tested on: Plasmodium berghei
- assayRemarks: Screen against P. berghei liver stage (PbLuc), transformed with Luciferase, at 2uM
- Format: functional, HepG2
- conditions: tested at 2 uM
Screen size: about 68,000 compounds; about 2,700 (4%) showed an effect of 50% or more. This is one part of a sample in which strong results are shown more often than they occur.
INHIBITION strictly less than 20% = yes. Otherwise no.

Past entries and their recorded results:
{"compound": "COc1ccnc(NC2CCN(CC(=O)Nc3ccccc3)CC2)n1", "targetEntity": "Plasmodium berghei", "classAssignment": "yes"}
{"compound": "NC(=O)COc1ccc(CNCc2ccc(F)c(F)c2)cc1", "targetEntity": "Plasmodium berghei", "classAssignment": "yes"}
{"compound": "COc1ccccc1CC(=O)NC(C)c1nc2cccnc2n1C(C)C (centres undefined)", "targetEntity": "Plasmodium berghei", "classAssignment": "no"}

Take the compound COCCN1CCC2(CC1)CC(N1CCOCC1)c1ccc(C)cc12 (centres undefined) and say whether its INHIBITION is less than 20%.
yes

Confirm or reject: INHIBITION of CN1CC2(CCN(C(=O)c3ccc(=O)n(C)c3)CC2)CC1=O lies strictly below 20%
no

Criterion: INHIBITION strictly below 20%. Is it met by CC1CN(C)c2ccccc2N(C(=O)c2ccc(=O)n(C)c2)C1 (centres undefined) ?
yes

For COc1ccnc(NC2CCN(CC(=O)N3CCCC3)CC2)n1 , is the recorded INHIBITION below the cut-off of 20%?
no

Decide: INHIBITION of COCC1CN(CCOc2ccc(Cl)cc2)Cc2c1cnn2C (centres undefined) strictly below 20%?
yes

###

- Test system: Plasmodium berghei
- assayRemarks: Screen against P. berghei liver stage (PbLuc), transformed with Luciferase, at 2uM
- Format: functional, HepG2
- conditions: tested at 2 uM
Out of some 68,000 compounds screened, about 2,700 (4%) showed an effect of 50% or more. The list comes from a sample in which strong results are over-represented; it also holds close analogues and randomly drawn compounds.
parameter: INHIBITION (%)
// note: answer is a bare numeric in %

Known results for compounds:
{"compound": "Cn1cc(C(=O)OCC(N)=O)c(-c2ccc(F)cc2F)n1", "readoutUnit": "%", "INHIBITION": 19.59}
{"compound": "CCCN1CCN(Cc2cn(CCC(N)=O)c3ccccc23)CC1", "readoutUnit": "%", "INHIBITION": 38.62}
{"compound": "Cc1cc(CN(C)C(=O)NC(C)Cc2ccco2)no1 (stereo not drawn)", "readoutUnit": "%", "INHIBITION": 45.62}

Lab note: measured INHIBITION of O=C(Nc1ccccc1)N1C2CCC(O)(CC2)C1CN1CCOCC1 (stereo not drawn) was 11.94

NC(=O)CCn1cc(CNCCCc2csc(N)n2)c2ccccc21 has a reported INHIBITION of 37.15

Noted for Cn1cccc1C(=O)NS(=O)(=O)c1cnn(-c2ccccc2F)c1 : its INHIBITION reads 25.21

Query Cn1cc(C(=O)O)c(-c2ccc(F)cc2F)n1 yields INHIBITION of 31.51

Field INHIBITION (entry Cc1cnc(CN(C)C2CCN(CC(=O)Nc3c(C)n[nH]c3C)C2)o1 (stereo not drawn) ) reads 36.65

# INHIBITION of CC(NCc1cn(CCC(N)=O)c2ccccc12)c1nncn1C (stereo not drawn) = -81.84

The compound Cc1n[nH]c(C)c1CCCNCc1cn(CCC(N)=O)c2ccccc12 showed INHIBITION equal to 42.2

For record O=C(O)c1cc(S(=O)(=O)Nc2cc(F)ccc2F)cc2c1OCCO2 the listed INHIBITION is -41.21

Documented INHIBITION of Cc1ncc2c(c1CNC(=O)C1(C)CCCCO1)CCNC2 (stereo not drawn) : -17.55

For this compound ( CCOCC(O)CN1CCN(C(=O)c2cc(Cl)ccc2F)CC1 (stereo not drawn) ), measured INHIBITION is 15.08

Value of INHIBITION reported for the compound Cc1cccc(CN2C[C@@H]3COC[C@H](NS(C)(=O)=O)[C@@H]3C2)n1 is 32.85

// INHIBITION value for CCC(C)NC(=O)NCCCn1nc2ccccn2c1=O (stereo not drawn) : 55.7

Per the records, this compound ( Cc1noc2nc(C3CCN(Cc4ccccn4)CC3)cc(C(F)F)c12 ) has INHIBITION equal to -32.4

Entry under test: Cc1ncc2c(c1CNC(=O)C1(C)CC1)CCNC2 . Its INHIBITION was 51.9

Noted for Cc1nc(-c2ccco2)ccc1C(=O)NCCCN1CCOCC1 : its INHIBITION reads -48.23

GET /value?item= CC(=O)N(Cc1ncc(C)o1)C1CCN(CCc2cccs2)C1 (stereo not drawn) &field=INHIBITION returns 64.16

# compound NC(=O)CCn1cc(CNCCCc2ccccc2O)c2ccccc21 ; its INHIBITION = 57.34

The compound identified as Cc1cc(CN(C)C(=O)NCc2ccco2)no1 registered its INHIBITION at 66.88

compound CN(C)C(=O)c1nc(CN2C(=O)OC[C@@H]2c2ccccc2)no1 , INHIBITION observed: 18.19
